Source of measurements: ChEMBL document CHEMBL1961873

# System: Receptor-type tyrosine-protein kinase FLT3 (Homo sapiens), P36888 [D835Y]
# condition.summary: at 1 µM
assay.metric: inhibition (%)

1) c1ccc(Nc2ncc(-c3ccccc3)o2)cc1 | 9.89
2) CCOc1nccc2c1nc(-c1nonc1N)n2CC | -1.34
3) c1ccc(Cc2nc3ccc(Nc4ncnc5ccccc45)cc3[nH]2)cc1 | 5.06
4) COc1ccc(-c2nn3ncccc3c2-c2ccnc(Nc3cccc(C(F)(F)F)c3)n2)cc1 | -4.73
5) FC(F)(F)c1ccc(-c2nn3ncccc3c2-c2ccnc(Nc3ccc4c(c3)OCCO4)n2)cc1 | -0.25
6) COC(=O)c1cncc(/C=C/c2c(C)cc(O)cc2C)c1 | 1.33
7) Nc1nccc(-c2c(-c3ccc(F)cc3)nn3cc(C(F)(F)F)ccc23)n1 | -4.89
8) COC(=O)Nc1nc2cc(Oc3ccc(NC(=O)Nc4cccc(Br)c4)cc3)ccc2[nH]1 | 5.43
9) O=C1Nc2ccc(-c3cccnc3)cc2C1=Cc1cc(Br)c(O)c(Br)c1 | 13.7
10) CCS(=O)(=O)c1ccc(OC)c(Nc2nccc(N(C)c3ccc4c(C)n[nH]c4c3)n2)c1 | -5.27
11) NS(=O)(=O)c1ccc(Nc2cc(-c3cccc(O)c3)n[nH]2)cc1 | 30.9
12) COc1cccc(-n2ncc3c(N/N=C/c4ccc(S(C)(=O)=O)cc4)ncnc32)c1 | 61.9
13) COc1cccc(-n2nc(C)c3c(N/N=C(\C)c4ccncc4)ncnc32)c1 | 1.49
14) N#Cc1c(NC(=O)c2ccccc2F)sc2c1CCCC2 | -1.19
15) Cc1cc(-c2ccccn2)cc(C)c1/C=C/c1cncc(-c2nn[nH]n2)c1 | 12
